systemUnderTest: Serine/threonine-protein kinase ULK1 (Homo sapiens)
protocol: Induction of ULK1-mediated autophagy in human SH-SY5Y cells at 1 uM after 6 hrs by MDC-staining based flow cytometric analysis relative to control
Assay type: cell-based
quantity: Activity (%)

Worked set:
{"columns": ["compound", "resultUnits", "Activity"],
 "data": [
  ["O=C(Nc1ccc(F)cc1F)[C@H](NCCc1ccc(O)cc1)c1ccccc1", "%", 32.1],
  ["CN1CCN(CC(OC(=O)c2ccccc2C(F)(F)F)c2ccccc2)CC1 (stereo not given)", "%", 10]
]}

I = Cc1ccccc1NC(=O)[C@H](NCCc1ccc(F)cc1)c1ccccc1
II = CN1CCN(CC(OC(=O)Cc2ccccn2)c2ccccc2)CC1 (stereo not given)
Q: // which entry has the larger Activity value, I or II ? Give the chosen item's label as your response.
Ans: I

1 = O=C(Nc1ccc(F)cc1F)[C@H](NCCc1ccc(F)cc1)c1ccccc1
2 = COc1ccc(N2CCN(CC(OC(=O)c3cccc(Cl)c3)c3ccccc3)CC2)cc1 (stereo not given)
3 = COc1ccc(N2CCN(CC(OC(=O)c3ccc(C)cc3)c3ccccc3)CC2)cc1 (stereo not given)
Q: Please rank these compounds by Activity in descending order. The reply should contain the labels ordered as requested.
Ans: 1, 2, 3

I = O=C(Nc1cccc(Cl)c1)N[C@@H](C(=O)Nc1cc(F)ccc1F)c1ccccc1
II = C[C@@H](NC(=O)[C@H](NC(=O)Nc1ccc(C(F)(F)F)cc1)c1ccccc1)c1ccccc1
Q: // which entry has the larger Activity value, I or II ? Give the chosen item's label as your response.
Ans: II
(II: 38.3%, I: 24.7%)

* * *

systemUnderTest: Serine/threonine-protein kinase ULK1 (Homo sapiens)
Sequence (whole entry): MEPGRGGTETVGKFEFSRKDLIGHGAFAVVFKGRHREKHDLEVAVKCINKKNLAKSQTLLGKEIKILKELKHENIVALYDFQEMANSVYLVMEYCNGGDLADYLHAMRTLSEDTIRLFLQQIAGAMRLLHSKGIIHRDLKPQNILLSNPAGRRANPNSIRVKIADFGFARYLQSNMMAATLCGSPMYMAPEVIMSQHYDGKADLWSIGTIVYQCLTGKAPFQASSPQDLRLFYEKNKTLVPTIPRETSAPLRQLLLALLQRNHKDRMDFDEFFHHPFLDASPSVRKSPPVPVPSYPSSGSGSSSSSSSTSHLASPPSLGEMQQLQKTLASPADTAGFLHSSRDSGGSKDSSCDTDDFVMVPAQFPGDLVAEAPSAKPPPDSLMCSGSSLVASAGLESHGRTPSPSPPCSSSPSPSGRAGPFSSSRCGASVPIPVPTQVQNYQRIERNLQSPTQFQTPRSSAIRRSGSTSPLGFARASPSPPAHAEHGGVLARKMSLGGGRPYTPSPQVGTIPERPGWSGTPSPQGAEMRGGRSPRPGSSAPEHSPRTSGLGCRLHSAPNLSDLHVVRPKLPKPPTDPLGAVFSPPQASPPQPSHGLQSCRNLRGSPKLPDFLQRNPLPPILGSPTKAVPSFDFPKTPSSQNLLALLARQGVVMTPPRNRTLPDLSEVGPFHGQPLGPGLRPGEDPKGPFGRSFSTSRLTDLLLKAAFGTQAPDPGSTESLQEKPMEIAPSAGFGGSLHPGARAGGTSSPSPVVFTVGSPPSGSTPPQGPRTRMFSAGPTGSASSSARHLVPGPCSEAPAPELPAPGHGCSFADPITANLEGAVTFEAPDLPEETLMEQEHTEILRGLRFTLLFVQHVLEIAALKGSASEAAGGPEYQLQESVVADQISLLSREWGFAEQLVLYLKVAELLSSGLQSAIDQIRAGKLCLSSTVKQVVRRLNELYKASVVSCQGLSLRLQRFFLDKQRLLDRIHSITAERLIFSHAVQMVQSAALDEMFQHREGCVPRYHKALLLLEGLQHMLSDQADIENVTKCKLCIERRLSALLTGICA
protocol: Induction of human recombinant N-terminal GST tagged-ULK1 (1 to 649 residues) kinase activity expressed in baculovirus infected insect Sf9 cells at 100 nM using MBP as substrate after 60 mins by ADP-glo assay relative to control
quantity: Activity (%)

Worked set:
{"columns": ["compound", "systemUnderTest", "Activity (%)"],
 "data": [
  ["Cc1ccc(NC(=O)N[C@@H](C(=O)Nc2cccc(Br)c2)c2ccccc2)cc1", "Serine/threonine-protein kinase ULK1 (Homo sapiens)", 147],
  ["COc1ccc(N2CCN(CC(OC(=O)c3ccc(Cl)cc3Cl)c3ccccc3)CC2)cc1 (stereo not given)", "Serine/threonine-protein kinase ULK1 (Homo sapiens)", 150],
  ["COc1ccc(N2CCN(CC(OC(=O)c3cccc(Cl)c3)c3ccccc3)CC2)cc1 (stereo not given)", "Serine/threonine-protein kinase ULK1 (Homo sapiens)", 163]
]}

P = O=C(Nc1cccc2ccccc12)N[C@@H](C(=O)Nc1cc(F)ccc1F)c1ccccc1
Q = O=C(Nc1ccc(C(F)(F)F)cc1)N[C@@H](C(=O)Nc1cc(F)ccc1F)c1ccccc1
Q: In terms of reported Activity, does P or Q have the smaller number? Give the chosen item's label as your response.
Ans: P

* * *

systemUnderTest: Serine/threonine-protein kinase ULK1 (Homo sapiens) (UniProt O75385)
protocol: Induction of human recombinant N-terminal GST tagged-ULK1 (1 to 649 residues) kinase activity expressed in baculovirus infected insect Sf9 cells at 100 nM using MBP as substrate after 60 mins by ADP-glo assay relative to control
quantity: Activity (%)

{"columns": ["compound", "systemUnderTest", "Activity / %"],
 "data": [
  ["COc1ccc(N2CCN(CC(OC(=O)c3ccc(C)cc3)c3ccccc3)CC2)cc1 (centres undefined)", "Serine/threonine-protein kinase ULK1 (Homo sapiens) (UniProt O75385)", 139],
  ["COc1ccc(N2CCN(CC(OC(=O)c3cccc(C)c3)c3ccccc3)CC2)cc1 (centres undefined)", "Serine/threonine-protein kinase ULK1 (Homo sapiens) (UniProt O75385)", 141],
  ["COc1ccc(N2CCN(CC(OC(=O)c3ccccc3F)c3ccccc3)CC2)cc1 (centres undefined)", "Serine/threonine-protein kinase ULK1 (Homo sapiens) (UniProt O75385)", 152],
  ["COc1ccc(NC(=O)N[C@@H](C(=O)N[C@H](C)c2ccccc2)c2ccccc2)cc1", "Serine/threonine-protein kinase ULK1 (Homo sapiens) (UniProt O75385)", 145],
  ["COc1ccc(NC(=O)[C@H](NC(=O)NCCc2ccc(OC)c(OC)c2)c2ccccc2)cc1", "Serine/threonine-protein kinase ULK1 (Homo sapiens) (UniProt O75385)", 141],
  ["C[C@@H](NC(=O)[C@H](NC(=S)Nc1ccccc1)c1ccccc1)c1ccccc1", "Serine/threonine-protein kinase ULK1 (Homo sapiens) (UniProt O75385)", 169],
  ["COc1ccc(NC(=O)N[C@@H](C(=O)N[C@H](C)c2cc(F)ccc2F)c2ccccc2)cc1", "Serine/threonine-protein kinase ULK1 (Homo sapiens) (UniProt O75385)", 153],
  ["O=C(Nc1ccc(F)cc1F)[C@H](NCCc1ccc(F)cc1)c1ccccc1", "Serine/threonine-protein kinase ULK1 (Homo sapiens) (UniProt O75385)", 202],
  ["CN1CCN(CC(OC(=O)c2ccc3ncccc3c2)c2ccccc2)CC1 (centres undefined)", "Serine/threonine-protein kinase ULK1 (Homo sapiens) (UniProt O75385)", 181],
  ["CN1CCN(CC(OC(=O)c2ccccc2F)c2ccccc2)CC1 (centres undefined)", "Serine/threonine-protein kinase ULK1 (Homo sapiens) (UniProt O75385)", 149],
  ["O=C(Nc1cc(F)ccc1F)[C@H](NC(=S)Nc1ccccc1)c1ccccc1", "Serine/threonine-protein kinase ULK1 (Homo sapiens) (UniProt O75385)", 197],
  ["Cc1ccccc1NC(=O)[C@H](NC(=O)Nc1cccc(Cl)c1)c1ccccc1", "Serine/threonine-protein kinase ULK1 (Homo sapiens) (UniProt O75385)", 156],
  ["Cc1ccccc1NC(=O)[C@H](NCCc1cc(Cl)ccc1O)c1ccccc1", "Serine/threonine-protein kinase ULK1 (Homo sapiens) (UniProt O75385)", 146],
  ["Cc1cccc(C)c1NC(=O)N[C@@H](C(=O)Nc1cccc(Br)c1)c1ccccc1", "Serine/threonine-protein kinase ULK1 (Homo sapiens) (UniProt O75385)", 155],
  ["Cc1ccccc1NC(=O)[C@H](NCCc1ccc(N(C)C)cc1)c1ccccc1", "Serine/threonine-protein kinase ULK1 (Homo sapiens) (UniProt O75385)", 143],
  ["O=C(Nc1ccccc1Cl)N[C@@H](C(=O)Nc1cccc(Br)c1)c1ccccc1", "Serine/threonine-protein kinase ULK1 (Homo sapiens) (UniProt O75385)", 161],
  ["Cc1ccccc1NC(=O)[C@H](NC(=O)Nc1c(C)cccc1C)c1ccccc1", "Serine/threonine-protein kinase ULK1 (Homo sapiens) (UniProt O75385)", 149],
  ["Cc1ccccc1NC(=O)[C@H](NC(=S)Nc1ccccc1)c1ccccc1", "Serine/threonine-protein kinase ULK1 (Homo sapiens) (UniProt O75385)", 179],
  ["COc1cccc(CCN[C@@H](C(=O)Nc2ccccc2C)c2ccccc2)c1", "Serine/threonine-protein kinase ULK1 (Homo sapiens) (UniProt O75385)", 140],
  ["C[C@@H](NC(=O)[C@H](NC(=O)Nc1ccccc1Cl)c1ccccc1)c1ccccc1", "Serine/threonine-protein kinase ULK1 (Homo sapiens) (UniProt O75385)", 158],
  ["COc1ccc(CCNC(=O)N[C@@H](C(=O)Nc2cccc(Cl)c2)c2ccccc2)cc1OC", "Serine/threonine-protein kinase ULK1 (Homo sapiens) (UniProt O75385)", 168],
  ["COc1ccc(C(=O)OC(CN2CCN(c3ccc(OC)cc3)CC2)c2ccccc2)cc1 (centres undefined)", "Serine/threonine-protein kinase ULK1 (Homo sapiens) (UniProt O75385)", 155],
  ["COc1ccc(CCNC(=O)N[C@@H](C(=O)Nc2ccc(C(F)(F)F)cc2)c2ccccc2)cc1OC", "Serine/threonine-protein kinase ULK1 (Homo sapiens) (UniProt O75385)", 163],
  ["COc1ccc(N2CCN(CC(OC(=O)c3ccc(C(F)(F)F)cc3)c3ccccc3)CC2)cc1 (centres undefined)", "Serine/threonine-protein kinase ULK1 (Homo sapiens) (UniProt O75385)", 171],
  ["CN1CCN(CC(OC(=O)c2cccc(Br)c2)c2ccccc2)CC1 (centres undefined)", "Serine/threonine-protein kinase ULK1 (Homo sapiens) (UniProt O75385)", 159],
  ["O=C(Nc1cccc(Br)c1)[C@H](NC(=S)Nc1ccccc1)c1ccccc1", "Serine/threonine-protein kinase ULK1 (Homo sapiens) (UniProt O75385)", 176],
  ["O=C(Nc1ccc(F)cc1F)[C@H](NCCc1ccc(Cl)c(Cl)c1)c1ccccc1", "Serine/threonine-protein kinase ULK1 (Homo sapiens) (UniProt O75385)", 174],
  ["Cc1ccc(NC(=O)N[C@@H](C(=O)Nc2ccccc2C)c2ccccc2)cc1", "Serine/threonine-protein kinase ULK1 (Homo sapiens) (UniProt O75385)", 174],
  ["COc1ccc(CCNC(=S)N[C@@H](C(=O)Nc2cc(C(F)(F)F)cc(C(F)(F)F)c2)c2ccccc2)cc1OC", "Serine/threonine-protein kinase ULK1 (Homo sapiens) (UniProt O75385)", 184],
  ["C[C@@H](NC(=O)[C@H](NC(=O)Nc1ccc(C(F)(F)F)cc1)c1ccccc1)c1ccccc1", "Serine/threonine-protein kinase ULK1 (Homo sapiens) (UniProt O75385)", 209],
  ["Cc1ccccc1NC(=O)[C@H](NCCc1ccc(O)cc1)c1ccccc1", "Serine/threonine-protein kinase ULK1 (Homo sapiens) (UniProt O75385)", 158],
  ["O=C(Nc1cccc(Br)c1)[C@H](NC(=S)Nc1cc(C(F)(F)F)cc(C(F)(F)F)c1)c1ccccc1", "Serine/threonine-protein kinase ULK1 (Homo sapiens) (UniProt O75385)", 217],
  ["COc1ccc(CCN[C@@H](C(=O)Nc2ccc(F)cc2F)c2ccccc2)cc1OC", "Serine/threonine-protein kinase ULK1 (Homo sapiens) (UniProt O75385)", 151],
  ["O=C(Nc1ccc(F)cc1F)[C@H](NCCc1ccc(Br)cc1)c1ccccc1", "Serine/threonine-protein kinase ULK1 (Homo sapiens) (UniProt O75385)", 171],
  ["O=C(Nc1cccc2ccccc12)N[C@@H](C(=O)Nc1cccc(Br)c1)c1ccccc1", "Serine/threonine-protein kinase ULK1 (Homo sapiens) (UniProt O75385)", 150],
  ["O=C(Nc1ccccc1Cl)N[C@@H](C(=O)Nc1cc(F)ccc1F)c1ccccc1", "Serine/threonine-protein kinase ULK1 (Homo sapiens) (UniProt O75385)", 144],
  ["O=C(Nc1ccc(C(F)(F)F)cc1)N[C@@H](C(=O)Nc1cccc(Br)c1)c1ccccc1", "Serine/threonine-protein kinase ULK1 (Homo sapiens) (UniProt O75385)", 179],
  ["Cc1cccc(C)c1NC(=O)N[C@@H](C(=O)N[C@H](C)c1ccccc1)c1ccccc1", "Serine/threonine-protein kinase ULK1 (Homo sapiens) (UniProt O75385)", 144],
  ["O=C(Nc1ccc(F)cc1F)[C@H](NCCc1ccc(O)cc1)c1ccccc1", "Serine/threonine-protein kinase ULK1 (Homo sapiens) (UniProt O75385)", 198]
]}
